Molecular target: Cannabinoid receptor 1 (Homo sapiens)
Sequence (P21554 whole entry): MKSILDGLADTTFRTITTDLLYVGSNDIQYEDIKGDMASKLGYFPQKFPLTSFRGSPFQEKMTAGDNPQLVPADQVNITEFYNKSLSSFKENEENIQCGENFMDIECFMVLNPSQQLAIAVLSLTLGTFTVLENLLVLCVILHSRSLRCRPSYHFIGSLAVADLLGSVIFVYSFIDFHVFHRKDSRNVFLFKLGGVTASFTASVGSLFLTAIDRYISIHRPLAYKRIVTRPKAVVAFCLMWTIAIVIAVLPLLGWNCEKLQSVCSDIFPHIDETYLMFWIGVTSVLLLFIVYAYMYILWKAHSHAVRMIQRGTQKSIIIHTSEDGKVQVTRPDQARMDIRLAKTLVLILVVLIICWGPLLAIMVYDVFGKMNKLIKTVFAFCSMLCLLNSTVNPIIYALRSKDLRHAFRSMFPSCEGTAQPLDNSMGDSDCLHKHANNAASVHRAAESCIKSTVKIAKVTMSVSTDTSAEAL
Assay: Displacement of [3H]CP-55,940 from human recombinant CB1 receptor expressed in CHO cell membranes after 90 mins by scintillation counting analysis
measureName: Ki

Past entries and their recorded results:
{"smilesData": "CCCCCn1cc(C(=O)NC23CC4CC(CC(C4)C2)C3)c(=O)n2ncnc12", "Ki": "712 nM"}
{"smilesData": "CCCCCn1cc(C(=O)NC23CC4CC(CC(C4)C2)C3)c(=O)c2c(CC)nn(C)c21", "Ki": "440 nM"}
{"smilesData": "CCCCCn1cc(C(=O)NC2CCCCCC2)c(=O)c2cnn(C)c21", "Ki": "4550 nM"}
{"smilesData": "CCCCCn1cc(C(=O)NCC2CCCCC2)c(=O)c2c(C)nn(C)c21", "Ki": "1120 nM"}
{"smilesData": "C=CCn1cc(C(=O)NC2CCCCC2)c(=O)c2c(C)nn(C)c21", "Ki": "> 10000 nM"}

Ki lookup needed for `CCCCCn1cc(C(=O)NC2CCCCCC2)c(=O)c2c(C)noc21` , thanks. 145 nM

Proceed to `CCCCCn1cc(C(=O)NC23CC4CC(CC(C4)C2)C3)c(=O)n2nc(-c3ccccc3)nc12` 523 nM

Proceed to `Cc1nn(C)c2c1c(=O)c(C(=O)NC1CCCCC1)cn2Cc1ccccc1` 4250 nM

Proceed to `CCCCCn1cc(C(=O)NC2CCCCCC2)c(=O)c2c(C)nn(C)c21` 252 nM

Proceed to `CCOCCn1cc(C(=O)NC2CCCCC2)c(=O)c2c(C)nn(C)c21` > 10000 nM
